# Test system: DU-145 prostate
# assay-remarks: NCI-60 one-dose screen, 48 h
# measurement-parameters: 10 µM unless noted
This is part of a sample that, as a whole, favours compounds with a hit. Of some 83,000 tested, about 20% had one in any assay. Active and inactive are the calls of the source. Rule for the calls: active = growth percent below 10; inactive = the rest.
Classes used: yes = active, no = inactive

INSERT INTO results (molecule, answer_label) VALUES
  ('Cc1cc(N/C=c2\sc3ncnn3c2=O)no1', 'no'),
  ('Cc1ccc(S(=O)(=O)NCCCNc2nccc(-c3c(-c4ccccc4)nc4sccn34)n2)cc1', 'no'),
  ('CC(C)CCC[C@@H](C)[C@H]1CC[C@H]2[C@@H]3CC[C@H]4C/C(=N/O)CC[C@]4(C)[C@H]3CC[C@]12C', 'no'),
  ('COC1=CC(c2ccc[nH]2)=N/C1=C\c1[nH]c(C)c(C(=O)CCCCC(=O)Nc2ccccc2)c1C', 'yes'),
  ('COc1ccc2c(c1)C=CC(C#N)N2C(=O)c1ccccc1 (stereo not given)', 'yes'),
  ('CCC1CCc2nc3sc(C(=O)Nc4cccc(C)c4)c(N)c3cc2C1 (stereo not given)', 'no'),
  ('CCOC(=O)C(Cc1ccccc1)n1c(O)c(C=Nc2ccc(C(=O)OCCN(CC)CC)cc2)sc1=O (stereo not given)', 'no'),
  ('CCCCCCCC/C=C\CCCCCCCCOc1ccccc1CCOP(=O)(O)OCC[N+](C)(C)C', 'no'),
  ('N#CC1=C(N)n2nc(-c3ccncc3)nc2NC1c1cccc2ccccc12 (stereo not given)', 'no'),
  ('NS(=O)(=O)c1ccc(CN2C(=O)c3cccc4cccc(c34)C2=O)cc1', 'no'),
  ('COc1ccc(/C=C/C(=O)c2ccc(NC(=O)CN3CCN(c4cc5c(cc4F)c(=O)c(C(=O)O)cn5C4CC4)CC3)cc2)cc1', 'no'),
  ('COc1cc(-c2cc(/C=C3\CCCCC3=O)[nH]n2)cc(OC)c1OC', 'no'),
  ('Cc1nc2sccn2c1-c1csc(Nc2ccccc2Cl)n1', 'no'),
  ('O=S(=O)(NCCNc1cc(-c2cn(-c3ccccc3)nc2-c2ccccc2)ccn1)c1ccc(F)cc1', 'no'),
  ('COc1cccc(-c2nc3sccn3c2-c2ccnc(NCCCNS(=O)(=O)c3ccc(F)cc3)n2)c1', 'no'),
  ('Cc1cc(NC(=O)COC(=O)c2sc3cc(F)ccc3c2Cl)no1', 'no'),
  ('CC1(C)OC2COC3(C(=O)O)OC(C)(C)OC3C2O1 (stereo not given)', 'no'),
  ('Nc1c(C(=O)Nc2ccccc2)sc2nc3c(cc12)CCC3', 'no'),
  ('Nc1nc(-c2ccccc2)cs1', 'no'),
  ('CNC(=O)Cc1nc(-c2cccc(NS(=O)(=O)c3c(F)cccc3F)c2F)c(-c2ccnc(Nc3ccccc3)n2)s1', 'no');

====

# System: KM12 colon
# assay-remarks: NCI-60 one-dose screen, 48 h
# measurement-parameters: 10 µM unless noted
# Description: Growth inhibition of the KM12 human tumor cell line is measured as a screen for anti-cancer activity. Cells are grown in 96 well plates and exposed to the test compound for 48 hours. Compounds are tested at a single concentration, which is 10^-5 M for most compounds. The reported endpoint is percent growth (GI% or GIPRCNT), where numbers from 0 - 100% represent growth inhibition, and numbers from -100% - 0 represent cell death. For example, a value of 40 represents 60% growth inhibition. […]
Compounds without any hit were thinned out: in the full panel of roughly 83,000, 20% have a hit. Activity calls are given as the source filed them. The calls were made as follows: active = growth percent below 10; inactive = the rest.
Classes used: t for active, f for inactive

INSERT INTO results (molecule, answer_label) VALUES
  ('COc1ccc(C2CC(c3cccs3)=NN2c2ccc(S(=O)(=O)NC(=O)NCc3cccc(OC)c3)cc2)cc1 (stereo unspecified)', 'f'),
  ('C=CC(=O)N[C@H](/C=C/C(=O)OCC)Cc1ccc(-c2cc(Cl)cc(Cl)c2)cc1', 'f'),
  ('C=CCn1c(C)nc2ccc(Nc3nc(Nc4ccc(F)cc4)nc4ccccc34)cc21', 'f'),
  ('CCCCCc1c(C)[nH]c(/C=c2\[nH]/c(=C3/C=c4ccccc4=N3)cc2OC)c1C', 't'),
  ('Clc1ccc(/C=C/c2nc(N3CCOCC3)c3nc(Cl)c(Cl)cc3n2)cc1', 'f'),
  ('O=S(=O)(O)CCl', 'f'),
  ('Cc1c(C2=NNC(c3ccc4c(c3)OCO4)C2)[n+]([O-])c2ccccc2[n+]1[O-] (stereo unspecified)', 'f'),
  ('Cc1oc2nc[nH]c(=O)c2c1C(=O)/C=C/c1ccc(Cl)cc1', 'f'),
  ('CC/C=C\C[C@H](O)C/C=C1/C(=O)C(Cl)=C[C@@H]1C/C=C\CCCC(=O)O', 'f'),
  ('CCCCOc1nc2c(C)cccc2cc1C1CNC(=O)c2ccccc2N1 (stereo unspecified)', 'f'),
  ('O=[N+]([O-])c1cc(S(=O)(=O)OCC2CO2)ccc1Cl (stereo unspecified)', 'f'),
  ('COc1cc(NCCN=C(N)NC(N)=NC(C)C)c2ncccc2c1', 'f'),
  ('Oc1ccc(Cl)cc1-c1cc(-c2ccc(Cl)cc2)n[nH]1', 'f'),
  ('Cc1cc(Nc2nc(C(=O)Nc3ccccc3)nc3ccccc23)n[nH]1', 'f'),
  ('COC(=O)c1ccc2nc(-c3cc4ccccc4n3C)n(CCCCOc3cc4c(cc3OC)C(=O)N3CCC[C@H]3C=N4)c2c1', 't'),
  ('CCN(Cc1ccc(CN(CC)C(=O)C(Cl)(Cl)Cl)cc1)C(=O)C(Cl)(Cl)Cl', 'f'),
  ('O=C(NNC(=S)Nc1ccccc1)c1ccccn1', 'f'),
  ('C#CCN1C(=O)/C(=c2\sc3n(c2=O)C2C(NN=3)N(CC)C(=O)N2CC)c2ccccc21 (stereo unspecified)', 'f'),
  ('COC(=O)CCCCCN=Cc1c(O)c(O)c(C(C)C)c2cc(C)c(-c3c(C)cc4c(C(C)C)c(O)c(O)c(C=NCCCCCC(=O)OC)c4c3O)c(O)c12', 'f'),
  ('CC(=O)C1CCC(C)=CC1=O (stereo unspecified)', 'f'),
  ('Nc1c(C(=O)Nc2ccccc2)sc2nc3c(cc12)CCCCC3', 'f'),
  ('Clc1nc(Cl)c2ncn(C/C=C/Cn3cnc4c(Cl)nc(Cl)nc43)c2n1', 'f'),
  ('COc1ccc(NC(=O)CSc2nc3ccccc3c(=O)n2Cc2cc(OC)c(OC)c(OC)c2)cc1', 'f'),
  ('CCN1C(=O)N(CC)C2C1NN=c1s/c(=C\c3cccc(F)c3)c(=O)n12 (stereo unspecified)', 'f'),
  ('COc1cc(Cn2c(SCCC(=O)Nc3ccc(F)cc3)nc3ccccc3c2=O)cc(OC)c1OC', 'f'),
  ('CCCn1c(=S)sc2c(Cl)nc(C)nc21', 'f'),
  ('COc1ccc(OC)c(-c2ccc(-c3ccccc3N)c3[nH]c4ccccc4c23)c1', 'f'),
  ('Clc1ccc(-c2nc(-c3ccco3)cn3ccnc23)cc1', 'f'),
  ('COc1ccc(Cn2c(SC)nc(=O)n(Cc3ccc(Cl)cc3)c2=O)cc1', 'f'),
  ('COc1cc(C2CC(c3c(C)[n+]([O-])c4ccccc4[n+]3[O-])=NN2)cc(OC)c1OC (stereo unspecified)', 'f'),
  ('CC(C)CCC[C@@H](C)[C@H]1CC[C@H]2[C@@H]3CC[C@H]4C/C(=N/O)CC[C@]4(C)[C@H]3CC[C@]12C', 'f'),
  ('O=c1oc2cc(OS(=O)(=O)c3ccccc3)c(Cl)cc2c2c1CCCCCC2', 'f'),
  ('COc1cc(C(=O)N2CCN(C(=O)c3ccco3)CC2)c(N)cc1OCc1ccccc1', 'f'),
  ('COc1ccc(-c2nc(-c3nc4ccc(F)cc4[nH]3)cc3c2[nH]c2ccccc23)cc1', 'f'),
  ('CSc1ccccc1C#C/C=C\C#Cc1ccccc1N1CCCCC1=O', 'f'),
  ('NC(N)=NC(N)=Nc1ccccc1-c1ccccc1', 'f'),
  ('CC(C)C[C@H](NC(=O)[C@@H](Cc1ccccc1)n1ccc(Nc2ccccc2)cc1=O)B(O)O', 't'),
  ('CCN1C(=O)N(CC)C2C1NN=c1s/c(=C\c3ccccn3)c(=O)n12 (stereo unspecified)', 'f'),
  ('Cc1cccc(NC(=O)c2sc3nc4c(cc3c2N)CCCC4)c1', 'f'),
  ('CCC(c1ccc(OC)cc1)C(CC)c1ccc(OCC[N+](C)(C)C)cc1 (stereo unspecified)', 'f'),
  ('Nc1nc(N)c2nc(CNc3ccc(C(=O)CC(CCC(=O)O)C(=O)O)cc3)cnc2n1 (stereo unspecified)', 'f');
